Molecular target: activated tie 2 kinase (Homo sapiens, UniProt Q02763)
Construct: a baculovirus expressed GST fusion for Tie2 kinase domain was constructed and expressed using the commercial vector pAcG I (Pharmingen); GST
Sequence (Q02763 824-1096 limits assumed): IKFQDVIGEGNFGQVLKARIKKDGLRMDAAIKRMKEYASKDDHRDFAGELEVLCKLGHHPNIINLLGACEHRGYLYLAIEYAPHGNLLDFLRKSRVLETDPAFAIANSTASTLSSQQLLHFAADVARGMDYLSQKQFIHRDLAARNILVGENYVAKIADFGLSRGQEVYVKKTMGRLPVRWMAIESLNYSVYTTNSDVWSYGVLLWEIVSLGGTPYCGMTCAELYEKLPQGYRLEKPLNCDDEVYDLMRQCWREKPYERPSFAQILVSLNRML
Test: Fluorescence polarization for Tie 2 kinase
Conditions: fluorescence polarization assay, 250 uM ATP, 10 uM peptide substrate
pIC50: −log10 of the molar value.
test_readout: pIC50

QUERY: Could you tell me which pIC50 is on file for `COc1ccc2cc(-c3nc(C(C)(C)CNC(=O)OC(C)(C)C)[nH]c3-c3ccncc3)ccc2c1` ?
RESULT: > 6.00

###

Target: Tie2 kinase (Homo sapiens, UniProt Q02763)
Construct: a baculovirus expressed GST fusion for Tie2 kinase domain was constructed and expressed using the commercial vector pAcG I (Pharmingen); GST
Experiment: Tie2 kinase autophosphorylation flashplate assay
Conditions: ATP final 30 uM
pIC50: −log10 of the molar value.
test_readout: pIC50

QUERY: Could you tell me which pIC50 is on file for COc1ccc2cc(-c3nc(C(C)(C)CNC(=O)OC(C)(C)C)[nH]c3-c3ccncc3)ccc2c1 [Example 1] ?
RESULT: > 6.00
